Tested system: Peroxisome proliferator-activated receptor gamma (Homo sapiens); further: assay procedure not described here
Sequence (P37231 whole entry): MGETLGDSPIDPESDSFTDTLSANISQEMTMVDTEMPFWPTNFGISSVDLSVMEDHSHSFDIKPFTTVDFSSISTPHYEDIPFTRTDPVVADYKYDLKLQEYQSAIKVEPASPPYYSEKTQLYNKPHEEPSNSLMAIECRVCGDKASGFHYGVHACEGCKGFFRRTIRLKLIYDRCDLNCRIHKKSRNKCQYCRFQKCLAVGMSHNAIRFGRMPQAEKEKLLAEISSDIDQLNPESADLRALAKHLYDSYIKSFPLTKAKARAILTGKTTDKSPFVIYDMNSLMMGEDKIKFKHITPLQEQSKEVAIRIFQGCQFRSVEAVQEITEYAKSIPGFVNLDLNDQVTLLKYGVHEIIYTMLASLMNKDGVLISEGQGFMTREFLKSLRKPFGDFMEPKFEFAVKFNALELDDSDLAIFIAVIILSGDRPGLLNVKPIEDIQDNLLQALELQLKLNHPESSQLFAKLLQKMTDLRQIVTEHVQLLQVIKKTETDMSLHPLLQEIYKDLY
Assay type: functional
Assay endpoint: AC50

Sample records with AC50:
Molecule	AC50
Oc1ccc2c(c1)CC[C@H](c1ccccc1)[C@@H]2c1ccc(OCCN2CCCC2)cc1	18 µM
CCN1CCN(Cc2ccc(Nc3ncc(F)c(-c4cc(F)c5nc(C)n(C(C)C)c5c4)n3)nc2)CC1	> 30 µM
C[C@]12CC[C@@H]3c4ccc(O)cc4C[C@@H](CCCCCCCCC[S+]([O-])CCCC(F)(F)C(F)(F)F)[C@H]3[C@@H]1CC[C@@H]2O (some centres undefined)	14 µM

Query molecule follows.
Req: So what does the record say about AC50 for C[C@@H](Oc1cc(-c2cnn(C3CCNCC3)c2)cnc1N)c1c(Cl)ccc(F)c1Cl ?
Resp: > 30 µM
